For each record, write down the corresponding alpha-2 - Selectivity Ki alpha-1/Ki alpha-2.
Test system: alpha-2-receptor
assay details: Radioligand binding, alpha-2 adrenoceptor, rat cerebral cortices, [3H]-rauwolscine
details: ratio Ki alpha-1/Ki alpha-2
Structures can show the parent of a compound that is named as a salt.
Write the number on its own, no unit after it.

Form field: reported alpha-2 - Selectivity Ki alpha-1/Ki alpha-2 of COc1ccc2c(c1)CCC2CN1CCC(c2cccc(F)c2)C1 (stereo not drawn) [Example 153, hydrochloride]
7

Form field: reported alpha-2 - Selectivity Ki alpha-1/Ki alpha-2 of Nc1ccc2c(c1)CCCC2CN1CCC(c2ccccc2)C1 (stereo not drawn) [Example 156, dihydrochloride]
21

Form field: reported alpha-2 - Selectivity Ki alpha-1/Ki alpha-2 of CN(CCc1cccc(F)c1)CC1CCCc2c1ccc1c2OCCO1 (stereo not drawn)
85

Form field: reported alpha-2 - Selectivity Ki alpha-1/Ki alpha-2 of CN(c1ccc2c(c1)CCCC2CN1CCC(c2ccccc2)C1)S(C)(=O)=O (stereo not drawn) [Example 193, hydrochloride]
93

Form field: reported alpha-2 - Selectivity Ki alpha-1/Ki alpha-2 of COc1cccc2c1CCCC2CN1CCC(c2cccs2)C1 (stereo not drawn) [Example 146, hydrochloride]
35

Form field: reported alpha-2 - Selectivity Ki alpha-1/Ki alpha-2 of Fc1ccc2c(c1)CCCC2CN1CCC(c2ccccc2)C1 (stereo not drawn)
19

Form field: reported alpha-2 - Selectivity Ki alpha-1/Ki alpha-2 of COc1ccc2c(c1)CCCC2CN1CCC(c2ccccc2)C1 (stereo not drawn) [Example 121, hydrochloride]
95

Form field: reported alpha-2 - Selectivity Ki alpha-1/Ki alpha-2 of c1ccc(C2CCN(CC3CCCc4c3ccc3c4OCO3)C2)cc1 (stereo not drawn) [Example 143a]
43

Form field: reported alpha-2 - Selectivity Ki alpha-1/Ki alpha-2 of COc1ccc(C)c2c1CCCC2CN(C)CCc1cccs1 (stereo not drawn) [Example 36, hydrochloride]
95

====

For each record, write down the corresponding pKi.
experimental system: alpha-1-receptor (Rattus norvegicus, UniProt P15823)
Construct: rat liver homogenates; from tissue; host or cells: rat liver homogenate
Sequence (P15823 1-515): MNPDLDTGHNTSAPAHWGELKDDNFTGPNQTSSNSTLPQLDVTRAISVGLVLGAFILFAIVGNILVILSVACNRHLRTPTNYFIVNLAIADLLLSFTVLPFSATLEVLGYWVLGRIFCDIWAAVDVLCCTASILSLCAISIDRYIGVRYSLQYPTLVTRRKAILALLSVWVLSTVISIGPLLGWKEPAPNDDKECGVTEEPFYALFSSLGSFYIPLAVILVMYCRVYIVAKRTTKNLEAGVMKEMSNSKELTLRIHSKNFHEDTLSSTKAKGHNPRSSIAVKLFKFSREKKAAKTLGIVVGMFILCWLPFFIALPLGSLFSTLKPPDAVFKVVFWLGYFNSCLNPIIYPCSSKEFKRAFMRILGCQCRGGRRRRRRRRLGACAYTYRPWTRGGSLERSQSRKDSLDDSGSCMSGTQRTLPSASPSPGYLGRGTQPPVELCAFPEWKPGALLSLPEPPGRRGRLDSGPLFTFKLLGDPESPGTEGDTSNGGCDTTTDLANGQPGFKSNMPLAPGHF
assay details: Radioligand binding, alpha-1 adrenoceptor, rat liver homogenates, [3H]-prazosin
details: rat liver homogenates, [3H]-prazosin; read-out: Ki alpha-1
Experimental: The compounds were assessed for alpha-adrenergic receptor subtype selectivity by use of radioligand binding techniques as described previously (DeBernardis et.al. J. Med. Chem. 28, 1398 (1985)).
Structures can show the parent of a compound that is named as a salt.
Interpret pKi as the negative base-10 log of the concentration measured in mol/L.

For alpha-1-receptor (Rattus norvegicus, UniProt P15823), provide pKi of COc1ccc2c(c1)CCC2CN(C)CCc1cccs1 (stereo not drawn) [Example 37, hydrochloride] please.
6.19

For alpha-1-receptor (Rattus norvegicus, UniProt P15823), provide pKi of COc1ccc2c(c1)CCCC2CN(C)CCc1cccn1C (stereo not drawn) please.
5.92

For alpha-1-receptor (Rattus norvegicus, UniProt P15823), provide pKi of CCN(CCc1ccsc1)CC1CCCc2cc(OC)ccc21 (stereo not drawn) [Example 44, hydrochloride] please.
6.23

For alpha-1-receptor (Rattus norvegicus, UniProt P15823), provide pKi of COc1ccc2c(c1)C(CN(C)CCc1cccs1)CCC2 (stereo not drawn) [Example 27, hydrochloride] please.
6.28

For alpha-1-receptor (Rattus norvegicus, UniProt P15823), provide pKi of Fc1ccccc1C1CCN(CC2CCCc3c2ccc2c3OCO2)C1 (stereo not drawn) [Example 176a] please.
7.10

For alpha-1-receptor (Rattus norvegicus, UniProt P15823), provide pKi of COc1ccc2c(c1)CCC2CN1CCC(c2cccs2)C1 (stereo not drawn) [Example 151, hydrochloride] please.
6.75

For alpha-1-receptor (Rattus norvegicus, UniProt P15823), provide pKi of CN(CCc1cccc(F)c1)CC1CCCc2c1ccc1c2OCCO1 (stereo not drawn) please.
6.45

For alpha-1-receptor (Rattus norvegicus, UniProt P15823), provide pKi of CCCN(CCc1cccs1)CC1CCCc2cc(OC)ccc21 (stereo not drawn) [Example 58, hydrochloride] please.
5.74

For alpha-1-receptor (Rattus norvegicus, UniProt P15823), provide pKi of c1ccc(C2CCN(CC3CCCc4c3ccc3c4OCO3)C2)cc1 (stereo not drawn) [Example 143a] please.
7.29

====

Tested on: alpha-2-receptor
assay details: Radioligand binding, alpha-2 adrenoceptor, rat cerebral cortices, [3H]-rauwolscine
details: ratio Ki alpha-1/Ki alpha-2
Counter-ions that a name gives are not always drawn.
readout name: alpha-2 - Selectivity Ki alpha-1/Ki alpha-2
Write the number on its own, no unit after it.

For alpha-2-receptor, provide alpha-2 - Selectivity Ki alpha-1/Ki alpha-2 of CCOc1ccc2c(c1)CCCC2CN(C)CCc1cccc(N)c1 (centres unmarked) [Example 69, dihydrochloride] please.
98

For alpha-2-receptor, provide alpha-2 - Selectivity Ki alpha-1/Ki alpha-2 of Fc1ccc2c(c1)CCCC2CN1CCC(c2cccs2)C1 (centres unmarked) please.
45

For alpha-2-receptor, provide alpha-2 - Selectivity Ki alpha-1/Ki alpha-2 of CN(CCc1cccs1)CC1CCCc2c(Cl)cccc21 (centres unmarked) [Example 129, hydrochloride] please.
55

For alpha-2-receptor, provide alpha-2 - Selectivity Ki alpha-1/Ki alpha-2 of COc1ccc2c(c1)CCC2CN1CCC(c2cccs2)C1 (centres unmarked) [Example 151, hydrochloride] please.
71

For alpha-2-receptor, provide alpha-2 - Selectivity Ki alpha-1/Ki alpha-2 of COc1ccc2c(c1)CCCC2CN(C)CCC1CCCS1 (centres unmarked) [Example 6h, hydrochloride] please.
430

====

experimental system: alpha-1-receptor (Rattus norvegicus, UniProt P15823)
Construct: rat liver homogenates; from tissue; host or cells: rat liver homogenate
assay details: Radioligand binding, alpha-1 adrenoceptor, rat liver homogenates, [3H]-prazosin
details: rat liver homogenates, [3H]-prazosin; read-out: Ki alpha-1
Structures can show the parent of a compound that is named as a salt.
Note to self: Ki under 300 nM means Condition met, ties and anything higher get Condition not met.

Could you please tell me whether Ki recorded for CN(CCc1cccs1)CC1CCCc2cc(O)ccc21 (stereo not drawn) [Example 7, hydrochloride] is less than 300 nM?
Condition not met

Could you please tell me whether Ki recorded for CN(CCc1cccs1)CC1CCCc2ccccc21 (stereo not drawn) [Example 22, hydrochloride] is less than 300 nM?
Condition not met

Could you please tell me whether Ki recorded for c1csc(C2CCN(CC3CCCc4c3ccc3c4OCO3)C2)c1 (stereo not drawn) [Example 144] is less than 300 nM?
Condition met

Could you please tell me whether Ki recorded for CCN(CCc1cccs1)CC1CCCc2c1ccc1c2OCO1 (stereo not drawn) [Example 164, hydrochloride] is less than 300 nM?
Condition not met

Could you please tell me whether Ki recorded for CN(CCc1cccs1)CC1CCCc2c(Cl)cccc21 (stereo not drawn) [Example 129, hydrochloride] is less than 300 nM?
Condition met

Could you please tell me whether Ki recorded for CN(CCc1cccc(F)c1)CC1CCCc2ccccc21 (stereo not drawn) [Example 70, hydrochloride] is less than 300 nM?
Condition not met

Could you please tell me whether Ki recorded for Fc1ccc2c(c1)CCCC2CN1CCC(c2ccccc2)C1 (stereo not drawn) [Example 148] is less than 300 nM?
Condition met

Could you please tell me whether Ki recorded for CN(CCc1ccccc1)CC1CCCc2ccccc21 (stereo not drawn) [Example 88, hydrochloride] is less than 300 nM?
Condition not met

Could you please tell me whether Ki recorded for COc1ccc2c(c1)CCCC2CN(C)CCC1CCCS1 (stereo not drawn) [Example 6h, hydrochloride] is less than 300 nM?
Condition not met

====

experimental system: alpha-1-receptor (Rattus norvegicus)
Construct: rat liver homogenates; from tissue; host or cells: rat liver homogenate
assay details: Radioligand binding, alpha-1 adrenoceptor, rat liver homogenates, [3H]-prazosin
details: rat liver homogenates, [3H]-prazosin; read-out: Ki alpha-1
Counter-ions that a name gives are not always drawn.
Note to self: Ki under 500 nM means label 1, ties and anything higher get label 0.

Could you please tell me whether Ki recorded for COc1ccc2c(c1)CCCC2CN(C)CCc1cccc(N)c1 (stereo not drawn) [Example 67, dihydrochloride] is less than 500 nM?
label 0

Could you please tell me whether Ki recorded for CN(CCc1cccs1)CC1CCCc2c1ccc(O)c2O (stereo not drawn) [Example 87, hydrochloride] is less than 500 nM?
label 1

Could you please tell me whether Ki recorded for COc1cc2c(cc1F)C(CN(C)CCc1ccco1)CCC2 (stereo not drawn) is less than 500 nM?
label 0

Could you please tell me whether Ki recorded for COc1ccc2c(c1)CCCC2CN(C)CCc1cccs1 (stereo not drawn) is less than 500 nM?
label 0

Could you please tell me whether Ki recorded for CN(c1ccc2c(c1)CCCC2CN1CCC(c2ccccc2)C1)S(C)(=O)=O (stereo not drawn) [Example 193, hydrochloride] is less than 500 nM?
label 1

Could you please tell me whether Ki recorded for COc1ccc2c(c1)CCCC2CN1CCC(c2ccccc2)C1 (stereo not drawn) [Example 121, hydrochloride] is less than 500 nM?
label 1

Could you please tell me whether Ki recorded for COc1ccc2c(c1)CCCC2CN(C)CCC1CCCC1 (stereo not drawn) [Example 6f, hydrochloride] is less than 500 nM?
label 0

Could you please tell me whether Ki recorded for CN(CCc1cccc(F)c1)CC1CCCc2c1ccc(O)c2O (stereo not drawn) [Example 85, hydrochloride] is less than 500 nM?
label 1
